Values compiled from paper PMC11019746.

molecular target: hY4R (Homo sapiens); assay: Y4R Ca2+ aequorin assay (CHO-hY4R-Gqi5-mtAEQ cells); format: cell-based; set-up: expressed in transfected cells; host or cells: CHO (co-expressing Gqi5 and mitochondrially targeted aequorin); settings: read-out: Ca2+-aequorin Emax ± SEM
Sequence (P50391 whole entry): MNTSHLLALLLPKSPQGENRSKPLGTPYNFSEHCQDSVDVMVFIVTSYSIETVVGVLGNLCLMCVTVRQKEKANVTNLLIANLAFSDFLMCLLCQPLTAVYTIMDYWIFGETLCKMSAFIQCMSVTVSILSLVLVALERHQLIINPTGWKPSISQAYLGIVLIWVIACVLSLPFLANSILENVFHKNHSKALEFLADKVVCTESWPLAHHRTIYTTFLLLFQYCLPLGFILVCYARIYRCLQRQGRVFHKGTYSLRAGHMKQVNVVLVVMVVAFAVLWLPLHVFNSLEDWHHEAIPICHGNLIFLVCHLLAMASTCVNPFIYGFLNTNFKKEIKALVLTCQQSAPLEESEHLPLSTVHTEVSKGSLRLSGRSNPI
The compounds listed here are annotated with their Emax.
I only need the number, in %, no unit after it.

Guide cases for Emax, answers given:
compound: Cc1cc(/C=C/C=C/c2ccc(N(C)C)cc2)cc(C)[n+]1CCCn1cc(CCCCNC(=O)N=C(N)NCCC[C@@H]2NC(=O)CCC(=O)NCCCCNC(=O)N=C(N)NCCC[C@@H](C(=O)N[C@@H](CC(C)C)C(=O)N[C@@H](CCCNC(=N)N)C(=O)N[C@@H](Cc3ccc(O)cc3)C(N)=O)NC(=O)[C@H](Cc3ccc(O)cc3)NC2=O)nn1
study-target: hY4R (Homo sapiens)
Emax [%]: 64

compound: CC(C)C[C@H](NC(=O)[C@@H]1CCCNC(N)=NC(=O)NCCCCNC(=O)[C@H](NC(=O)CCCNC(=O)CCC#Cc2ccc3c(c2)C(C)(C)C2=C4C=C5C6=[N+](CCC5OC4CCN23)c2ccc(S(=O)(=O)[O-])cc2C6(C)C)CC(=O)N[C@@H](CCCNC(=N)N)C(=O)N[C@@H](Cc2ccc(O)cc2)C(=O)N1)C(=O)N[C@@H](CCCNC(=N)N)C(=O)N[C@@H](Cc1ccc(O)cc1)C(N)=O (stereo partly shown)
study-target: hY4R (Homo sapiens)
Emax [%]: 66

compound: CC(C)C[C@H](NC(=O)[C@@H]1CCCNC(N)=NC(=O)NCCCCNC(=O)[C@H](NC(=O)CCCNC(=O)CCCCCN2/C(=C/C=C/C=C/C3=[N+](CCCCS(=O)(=O)[O-])c4ccccc4C3(C)C)C(C)(C)c3cc(S(=O)(=O)O)ccc32)CC(=O)N[C@@H](CCCNC(=N)N)C(=O)N[C@@H](Cc2ccc(O)cc2)C(=O)N1)C(=O)N[C@@H](CCCNC(=N)N)C(=O)N[C@@H](Cc1ccc(O)cc1)C(N)=O
study-target: hY4R (Homo sapiens)
Emax [%]: 71

# input for lookup
// query What Emax value was documented for this compound, C#CCCCCNC(=O)N=C(N)NCCC[C@@H]1NC(=O)CCC(=O)NCCCCNC(=O)N=C(N)NCCC[C@@H](C(=O)N[C@@H](CC(C)C)C(=O)N[C@@H](CCCNC(=N)N)C(=O)N[C@@H](Cc2ccc(O)cc2)C(N)=O)NC(=O)[C@H](Cc2ccc(O)cc2)NC1=O ?
// result 56
